# System: U-87 MG
# experiment description: Cytotoxicity against human U87 cells assessed as reduction in cell viability after 72 hrs by RRA assay
# Type: functional, cell-based, U-87MG ATCC
Response field label takes Criterion met when IC50 is strictly below 3000 nM and Criterion not met in all other cases.

> print(dat)
                                    compound              class
 1  COc1cccc2c1C(=O)c1c(O)c3c(c(O)c1C2=O)C[C@@](O)(C(=O)CO)C[C@@H]3O[C@H]1C[C@H](N)[C@H](O)[C@H](C)O1 [DOXORUBICIN]      Criterion met
 2             C=CCc1cc(C(C)=O)ccc1OCC=C(C)C  Criterion not met
 3    C#CCOc1ccc(/C=C/C(=O)c2cccc(C)c2)cc1OC      Criterion met
 4      C#CCOc1ccc(/C=C/C(=O)c2ccccc2C)cc1OC      Criterion met
 5   C#CCOc1ccc(/C=C/C(=O)c2cccc(OC)c2)cc1OC      Criterion met
 6  C#CCOc1ccc(/C=C/C(=O)c2ccc(-n3ccnc3)cc2)cc1OC      Criterion met
 7  C#CCOc1ccc(/C=C/C(=O)c2ccc(OC)c(OC)c2)cc1OC      Criterion met
 8   C#CCOc1ccc(/C=C/C(=O)c2cccc(Br)c2)cc1OC      Criterion met
 9  C#CCOc1ccc(/C=C/C(=O)c2ccc(C(C)C)cc2)cc1OC      Criterion met
10                      C=CCOc1ccc(C=O)cc1OC  Criterion not met
